# Test details: Plasma clearance value upon iv administration in mouse
# Type: ADME, organism-based
Property label: clearance (mL/min/kg)
Numbers only, in mL/min/kg.

Smiles entry: Cc1cn(CC2CCCCC2)c2cc(C(=O)Nc3c(Cl)c[n+]([O-])cc3Cl)ccc12
Readout unit: mL/min/kg
clearance: 5

Proceeding to the next compound to report its clearance.
# clearance lookup, item Cc1cn(Cc2ccccc2)c2cc(C(=O)Nc3c(Cl)c[n+]([O-])cc3Cl)ccc12
8.33

----------
# Test details: Maximum concentration in plasma upon oral administration in mouse
# Type: ADME, organism-based
# Conditions used: read-out: Cp max
Kindly supply the reported Cmax values for the records listed here.
Give bare numbers, in ng/mL.

Smiles entry: Cc1cn(CC2CCCCC2)c2cc(C(=O)Nc3c(Cl)c[n+]([O-])cc3Cl)ccc12
Cmax, ng/mL: 439

Proceeding to the next compound to report its Cmax.
# Cmax lookup, item Cc1cn(Cc2ccccc2)c2cc(C(=O)Nc3c(Cl)c[n+]([O-])cc3Cl)ccc12
393

----------
# Test details: Area under curve by iv administration in mouse
# Assay type: ADME, organism-based
# Conditions used: in vivo
Property label: AUC

Smiles entry: Cc1cn(Cc2ccccc2)c2cc(C(=O)Nc3c(Cl)c[n+]([O-])cc3Cl)ccc12
AUC: 2020 ng·h/mL

# AUC lookup, item Cc1cn(CC2CCCCC2)c2cc(C(=O)Nc3c(Cl)c[n+]([O-])cc3Cl)ccc12
3260 ng·h/mL

----------
# Test details: Half-life by iv administration in mouse
# Format: ADME, organism-based
# Conditions used: in vivo
Kindly supply the reported half-life values for the records listed here.

Smiles entry: Cc1cn(Cc2ccccc2)c2cc(C(=O)Nc3c(Cl)c[n+]([O-])cc3Cl)ccc12
Property label: half-life
Experimental value: 5.1 h

# half-life lookup, item Cc1cn(CC2CCCCC2)c2cc(C(=O)Nc3c(Cl)c[n+]([O-])cc3Cl)ccc12
3.6 h

----------
# Test details: Area under curve by ioral administration in mouse
# Type: ADME, organism-based
# Conditions used: in vivo, po
Property label: AUC
Include the unit after the number when you answer.

Smiles entry: Cc1cn(Cc2ccccc2)c2cc(C(=O)Nc3c(Cl)c[n+]([O-])cc3Cl)ccc12
Property label: AUC
Experimental value: 669 ng·h/mL

# AUC lookup, item Cc1cn(CC2CCCCC2)c2cc(C(=O)Nc3c(Cl)c[n+]([O-])cc3Cl)ccc12
3140 ng·h/mL

----------
Kindly supply the reported IC50 values for the records listed here.
# Measurement target: Phosphodiesterase 4 (Homo sapiens, UniProt P27815+Q08499+Q07343+Q08493)
# Test details: Inhibition of phosphodiesterase type IV (PDE4) activity
# Assay type: protein assay
Include the unit after the number when you answer.

These recorded examples may help you get a feel for the data.
Smiles entry: Cc1cn(Cc2ccc(C(=O)O)cc2)c2cc(C(=O)Nc3c(Cl)c[n+]([O-])cc3Cl)ccc12
Experimental value: 1400 nM

Smiles entry: Cc1cn(CCCCc2ccccc2)c2cc(C(=O)Nc3c(Cl)c[n+]([O-])cc3Cl)ccc12
Experimental value: 46 nM

Smiles entry: Cc1noc(C)c1Cn1cc(C)c2ccc(C(=O)Nc3c(Cl)c[n+]([O-])cc3Cl)cc21
Experimental value: 500 nM

Smiles entry: Cc1cn(Cc2nccn2Cc2ccccc2)c2cc(C(=O)Nc3c(Cl)c[n+]([O-])cc3Cl)ccc12
Experimental value: 420 nM

State recorded IC50 for all listed compounds.
1. Cc1cn(Cc2ccc(S(C)(=O)=O)cc2)c2cc(C(=O)Nc3c(Cl)c[n+]([O-])cc3Cl)ccc12
2. Cc1cn(CCCC2CCCCC2)c2cc(C(=O)Nc3c(Cl)c[n+]([O-])cc3Cl)ccc12
3. Cc1cn(CC2CCCCCC2)c2cc(C(=O)Nc3c(Cl)c[n+]([O-])cc3Cl)ccc12
4. Cc1nc(Cn2cc(C)c3ccc(C(=O)Nc4c(Cl)c[n+]([O-])cc4Cl)cc32)cs1
5. Cc1cn(Cc2ccc3ccccc3c2)c2cc(C(=O)Nc3c(Cl)c[n+]([O-])cc3Cl)ccc12

260 nM
16 nM
20 nM
80 nM
22 nM
